Tested on: LG0567-F671-PDC complex spheroids viability;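 note: spheroids exposed to compound for seven days before readout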
protocol.details: Anticancer human tumor LG0567-F671-PDC patient-derived lung adenocarcinoma cell line growth inhibition [RAS]
condition.set: second compound 0.0949 µM; first compound 10 µM; stronger effect = lower value
Listed here: items and their measured viability, T/C.
endpoint.name: viability, T/C (%)

- CC(=O)OC12COC1CC(O)C1(C)C(=O)C(O)C3=C(C)C(OC(=O)C(O)C(NC(=O)OC(C)(C)C)c4ccccc4)CC(O)(C(OC(=O)c4ccccc4)C21)C3(C)C (configuration not stated) + CCn1c(-c2cccnc2C(C)OC)c2c3cc(ccc31)N1CCOC(CC(NC(=O)C(C(C)C)N(C)C(=O)C3(F)CCN(C(=O)C#CC(C)(C)N(C)C)CC3)C(=O)N3CCCC(N3)C(=O)OCC(C)(C)C2)C1: 6.64
- C[C@@H](NC(=O)c1ncnc(N)c1Cl)c1ncc(C(=O)Nc2cc(C(F)(F)F)c(Cl)cn2)s1 + CCn1c(-c2cc(N3CCN(C)CC3)cnc2C(C)OC)c2c3cc(ccc31)-c1csc(n1)CC(NC(=O)C1CC1C)C(=O)N1CCCC(N1)C(=O)OCC(C)(C)C2: 7.14
- CC1(O)CCCC1n1c(=O)c(C(F)F)cc2cnc(NC3CCN(S(C)(=O)=O)CC3)nc21 (configuration not stated) + CCn1c(-c2cc(N3CCN(C)CC3)cnc2C(C)OC)c2c3cc(ccc31)-c1csc(n1)CC(NC(=O)C1CC1C)C(=O)N1CCCC(N1)C(=O)OCC(C)(C)C2: 5
- CC(=O)OC12COC1CC(O)C1(C)C(=O)C(O)C3=C(C)C(OC(=O)C(O)C(NC(=O)OC(C)(C)C)c4ccccc4)CC(O)(C(OC(=O)c4ccccc4)C21)C3(C)C (configuration not stated) + CCn1c(-c2cc(N3CCN(C)CC3)cnc2C(C)OC)c2c3cc(ccc31)-c1csc(n1)CC(NC(=O)C1CC1C)C(=O)N1CCCC(N1)C(=O)OCC(C)(C)C2: 1.6
- CC1(O)CCCC1n1c(=O)c(C(F)F)cc2cnc(NC3CCN(S(C)(=O)=O)CC3)nc21 (configuration not stated) + CCn1c(-c2cccnc2C(C)OC)c2c3cc(ccc31)N1CCOC(CC(NC(=O)C(C(C)C)N(C)C(=O)C3(F)CCN(C(=O)C#CC(C)(C)N(C)C)CC3)C(=O)N3CCCC(N3)C(=O)OCC(C)(C)C2)C1: 15.6
- CC(Nc1ccc2c(c1)OCCn1cc(N3C(=O)OCC3C(F)F)nc1-2)C(N)=O (configuration not stated) + CCn1c(-c2cc(N3CCN(C)CC3)cnc2C(C)OC)c2c3cc(ccc31)-c1csc(n1)CC(NC(=O)C1CC1C)C(=O)N1CCCC(N1)C(=O)OCC(C)(C)C2: 0.89
- NC1c2ccccc2OC12CCN(c1cnc3c(N4CCCc5ncccc54)n[nH]c3n1)CC2 (configuration not stated) + CCn1c(-c2cccnc2C(C)OC)c2c3cc(ccc31)N1CCOC(CC(NC(=O)C(C(C)C)N(C)C(=O)C3(F)CCN(C(=O)C#CC(C)(C)N(C)C)CC3)C(=O)N3CCCC(N3)C(=O)OCC(C)(C)C2)C1: 1.44

Ref: PubChem BioAssay AID2060889
